# Test system: Mus musculus
# experiment-notes: Cmax in C57BL/6N mouse at 10 mg/kg, po administered via gavage containing <0.4% Ro-61-8048 by LC-MS/MS analysis
# Assay type: ADME, organism-based
# Set-up: dose 10 mg/kg, route oral
# reported-conditions: in vivo

compound-structure | units-of-measure | Cmax
COc1ccc(S(=O)(=O)Nc2nc(-c3cccc([N+](=O)[O-])c3)c(CN3CCCCC3)s2)cc1OC | nM | 100

---

// reported AUC(0-inf) per item
# experiment-notes: AUC(infinity) in C57BL/6N mouse treated with JM6 (containing <0.4% Ro-61-8048) at 10 mg/kg, po and Ro-61-8048 at 0.05 mg/kg, po drugs administered via gavage by LC-MS/MS analysis
# Type: ADME, organism-based
# Parameters: dose 10 mg/kg, route oral, time infinity
# reported-conditions: plasma
metric-name: AUC(0-inf) (µM·h)

compound-structure | units-of-measure | number
COc1ccc(S(=O)(=O)Nc2nc(-c3cccc([N+](=O)[O-])c3)cs2)cc1OC | µM·h | 5.2
COc1ccc(S(=O)(=O)Nc2nc(-c3cccc([N+](=O)[O-])c3)c(CN3CCCCC3)s2)cc1OC | µM·h | 1.3

---

# experiment-notes: Plasma clearance in C57BL/6N mouse at 5 mg/kg, iv administered as single dose containing <0.4% Ro-61-8048 by LC-MS/MS analysis
# Format: ADME, organism-based
# Design: dose 5 mg/kg, route intravenous
metric-name: clearance (mL/min/kg)

compound-structure | units-of-measure | number
COc1ccc(S(=O)(=O)Nc2nc(-c3cccc([N+](=O)[O-])c3)c(CN3CCCCC3)s2)cc1OC | mL/min/kg | 31.7

---

# experiment-notes: Tmax in C57BL/6N mouse treated with JM6 (containing <0.4% Ro-61-8048) at 9 mg/kg, po and Ro-61-8048 at 1 mg/kg, po drugs administered via gavage by LC-MS/MS analysis
# Assay type: ADME, organism-based
# reported-conditions: in vivo
metric-name: Tmax (min)

compound-structure | units-of-measure | number
COc1ccc(S(=O)(=O)Nc2nc(-c3cccc([N+](=O)[O-])c3)c(CN3CCCCC3)s2)cc1OC | min | 30
COc1ccc(S(=O)(=O)Nc2nc(-c3cccc([N+](=O)[O-])c3)cs2)cc1OC | min | 30

---

# experiment-notes: Cmax in mouse at 25 mg/kg, po
# Assay type: ADME, organism-based
# Set-up: dose 25 mg/kg, route oral
# reported-conditions: in vivo
metric-name: Cmax (µM)

compound-structure | number
COc1ccc(S(=O)(=O)Nc2nc(-c3cccc([N+](=O)[O-])c3)c(CN3CCCCC3)s2)cc1OC | 3.4

---

# tgt: Kynurenine 3-monooxygenase (Homo sapiens)
# experiment-notes: Inhibition of KMO (unknown origin)
pIC50: −log10 of the molar value.

compound-structure | pIC50
COc1ccc(S(=O)(=O)Nc2nc(-c3cccc([N+](=O)[O-])c3)c(CN3CCCCC3)s2)cc1OC | 5.40

---

# tgt: Kynurenine 3-monooxygenase (Homo sapiens, UniProt O15229)
# Sequence (O15229 whole entry): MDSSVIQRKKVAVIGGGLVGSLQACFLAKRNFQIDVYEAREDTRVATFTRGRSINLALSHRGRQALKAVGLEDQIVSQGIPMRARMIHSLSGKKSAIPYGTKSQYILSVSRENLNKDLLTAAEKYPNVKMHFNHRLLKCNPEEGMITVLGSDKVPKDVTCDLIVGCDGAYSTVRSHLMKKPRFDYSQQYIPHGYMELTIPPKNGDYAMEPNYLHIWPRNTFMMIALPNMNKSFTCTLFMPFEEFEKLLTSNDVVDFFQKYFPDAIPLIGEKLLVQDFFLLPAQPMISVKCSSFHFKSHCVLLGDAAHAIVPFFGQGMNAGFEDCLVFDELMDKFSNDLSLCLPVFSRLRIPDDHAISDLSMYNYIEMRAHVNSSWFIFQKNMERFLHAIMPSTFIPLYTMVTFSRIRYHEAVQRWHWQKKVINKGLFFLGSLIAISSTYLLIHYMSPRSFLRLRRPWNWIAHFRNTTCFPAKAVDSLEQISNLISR
# experiment-notes: Inhibition of human KMO assessed as 3-hydroxykynurenine formation preincubated for 5 mins using 100 uM kynurenine as substrate by LC-MS/MS analysis
pIC50: −log10 of the molar value.
// reported pIC50 per item

compound-structure | pIC50
COc1ccc(S(=O)(=O)Nc2nc(-c3cccc([N+](=O)[O-])c3)c(CN3CCCCC3)s2)cc1OC | 4.96
COc1ccc(S(=O)(=O)Nc2nc(-c3cccc([N+](=O)[O-])c3)c(CN)s2)cc1OC | 4.77
COc1ccc(S(=O)(=O)Nc2nc(-c3cccc([N+](=O)[O-])c3)c(CO)s2)cc1OC | 4.41
COc1ccc(S(=O)(=O)Nc2nc(-c3cccc([N+](=O)[O-])c3)cs2)cc1OC | 6.77

---

# experiment-notes: Efflux ratio of permeability from basolateral to apical side over apical to basolateral side in MDCK2 cells at 10 uM after 1 hr by LC-MS/MS analysis
# Assay type: ADME, cell-based, Canis lupus familiaris, MDCK-II
# reported-conditions: dog, MDCK

compound-structure | efflux ratio at 1 h, 10 µM
COc1ccc(S(=O)(=O)Nc2nc(-c3cccc([N+](=O)[O-])c3)cs2)cc1OC | 0.8

---

# experiment-notes: Tmax in C57BL/6N mouse treated with JM6 (containing <0.4% Ro-61-8048) at 25 mg/kg, po and Ro-61-8048 at 0.05 mg/kg, po drugs administered via gavage by LC-MS/MS analysis
# Format: ADME, organism-based
# reported-conditions: in vivo

compound-structure | Tmax / h
COc1ccc(S(=O)(=O)Nc2nc(-c3cccc([N+](=O)[O-])c3)c(CN3CCCCC3)s2)cc1OC | 0.5
COc1ccc(S(=O)(=O)Nc2nc(-c3cccc([N+](=O)[O-])c3)cs2)cc1OC | 2

---

# experiment-notes: Cmax in R6/2 mouse at 7.5 mg/kg/day, po
# Type: ADME, organism-based
# Parameters: dose 7.5 mg/kg/day, route oral
# reported-conditions: in vivo

compound-structure | Cmax [nM]
COc1ccc(S(=O)(=O)Nc2nc(-c3cccc([N+](=O)[O-])c3)cs2)cc1OC | 280

---

# experiment-notes: Half life in C57BL/6N mouse treated with JM6 (containing <0.4% Ro-61-8048) at 9 mg/kg, po and Ro-61-8048 at 1 mg/kg, po drugs administered via gavage by LC-MS/MS analysis
# Type: ADME, organism-based
# reported-conditions: in vivo
// reported half-life per item

compound-structure | half-life
COc1ccc(S(=O)(=O)Nc2nc(-c3cccc([N+](=O)[O-])c3)c(CN3CCCCC3)s2)cc1OC | 0.7 h
COc1ccc(S(=O)(=O)Nc2nc(-c3cccc([N+](=O)[O-])c3)cs2)cc1OC | 4.4 h

---

// reported pIC50 per item
# tgt: UniProtKB O88867
# Sequence (O88867 whole entry): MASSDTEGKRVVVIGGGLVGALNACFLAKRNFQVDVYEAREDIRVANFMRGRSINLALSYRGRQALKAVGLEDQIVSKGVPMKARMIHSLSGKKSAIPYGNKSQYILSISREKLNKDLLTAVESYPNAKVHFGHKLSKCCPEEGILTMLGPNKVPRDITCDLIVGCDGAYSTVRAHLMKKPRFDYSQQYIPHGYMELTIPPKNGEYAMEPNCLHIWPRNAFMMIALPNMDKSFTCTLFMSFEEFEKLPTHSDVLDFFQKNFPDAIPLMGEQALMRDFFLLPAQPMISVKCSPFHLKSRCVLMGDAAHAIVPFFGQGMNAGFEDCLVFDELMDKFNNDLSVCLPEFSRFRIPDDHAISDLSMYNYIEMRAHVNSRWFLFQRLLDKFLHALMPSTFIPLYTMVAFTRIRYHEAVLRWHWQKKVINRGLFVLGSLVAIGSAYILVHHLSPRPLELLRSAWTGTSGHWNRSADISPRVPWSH
# experiment-notes: Inhibition of Wistar rat KMO assessed as 3-hydroxykynurenine formation preincubated for 5 mins using 100 uM kynurenine as substrate by LC-MS/MS analysis
pIC50: −log10 of the molar value.

compound-structure | tgt | pIC50
COc1ccc(S(=O)(=O)Nc2nc(-c3cccc([N+](=O)[O-])c3)c(CN3CCCCC3)s2)cc1OC | UniProtKB O88867 | 5.15
COc1ccc(S(=O)(=O)Nc2nc(-c3cccc([N+](=O)[O-])c3)c(CN)s2)cc1OC | UniProtKB O88867 | 5.00
COc1ccc(S(=O)(=O)Nc2nc(-c3cccc([N+](=O)[O-])c3)c(CO)s2)cc1OC | UniProtKB O88867 | 4.96
COc1ccc(S(=O)(=O)Nc2nc(-c3cccc([N+](=O)[O-])c3)cs2)cc1OC | UniProtKB O88867 | 7.66

---

# experiment-notes: Metabolic stability in mouse liver microsomes assessed as intrinsic clearance at 5 uM after 5 to 40 mins by LC-MS/MS analysis
# Assay type: ADME
# reported-conditions: read-out: CLH

compound-structure | microsomal CLint at 5 µM
COc1ccc(S(=O)(=O)Nc2nc(-c3cccc([N+](=O)[O-])c3)cs2)cc1OC | < 29 µL/min/mg

---

# experiment-notes: Hepatic extraction ratio in mouse Hepatocyte at 1 uM after 10 to 90 mins by LC-MS/MS analysis
# Format: ADME, cell-based
# reported-conditions: hepatocytes, read-out: ERH
// reported hepatic extraction ratio at 1 µM per item
metric-name: hepatic extraction ratio at 1 µM

compound-structure | metric-name | limit-qualifier | number
COc1ccc(S(=O)(=O)Nc2nc(-c3cccc([N+](=O)[O-])c3)cs2)cc1OC | hepatic extraction ratio at 1 µM | < | 0.5
COc1ccc(S(=O)(=O)Nc2nc(-c3cccc([N+](=O)[O-])c3)c(CN3CCCCC3)s2)cc1OC | hepatic extraction ratio at 1 µM | = | 0.83

---

# experiment-notes: Mean residence time in C57BL/6N mouse at 5 mg/kg, iv administered as single dose containing <0.4% Ro-61-8048 by LC-MS/MS analysis
# Assay type: ADME, organism-based
# Set-up: dose 5 mg/kg, route intravenous
# reported-conditions: in vivo
metric-name: MRT (min)

compound-structure | number
COc1ccc(S(=O)(=O)Nc2nc(-c3cccc([N+](=O)[O-])c3)c(CN3CCCCC3)s2)cc1OC | 12

---

# Tested on: MDR1
# experiment-notes: Efflux ratio of permeability from basolateral to apical side over apical to basolateral side in MDCK2-MDR1 cells at 10 uM after 1 hr by LC-MS/MS analysis
# Format: ADME, cell-based, Canis lupus familiaris
# reported-conditions: dog, MDCK-MDR1
metric-name: efflux ratio at 1 h, 10 µM

compound-structure | number
COc1ccc(S(=O)(=O)Nc2nc(-c3cccc([N+](=O)[O-])c3)cs2)cc1OC | 3.2
COc1ccc(S(=O)(=O)Nc2nc(-c3cccc([N+](=O)[O-])c3)c(CN3CCCCC3)s2)cc1OC | 60
